TARGET_OR_SYSTEM: T1, native human ApoC3 (human, UniProt P02656 21-99)
T1 construct: also called nhuApoC3; native huApoC3
T1 sequence (P02656 21-99): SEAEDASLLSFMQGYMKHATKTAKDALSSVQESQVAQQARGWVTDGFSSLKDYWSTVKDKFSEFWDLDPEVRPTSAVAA
ASSAY_NAME: SPR, ApoC3 over captured IgG1, pH 7.4
VALUE_TYPE: Ka (M⁻¹)
Write the number in M⁻¹ without appending the unit.

- BINDER: "mAb20 (antibody, IgG1, V domains shown, Produced as full length IgG1 (kappa) in ExpiCHO-S cells; also called humanized anti-ApoC3 antibody mAb20) VH: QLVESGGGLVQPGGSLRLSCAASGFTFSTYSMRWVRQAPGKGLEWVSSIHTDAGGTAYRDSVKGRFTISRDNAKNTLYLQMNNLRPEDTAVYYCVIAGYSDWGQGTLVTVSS VL: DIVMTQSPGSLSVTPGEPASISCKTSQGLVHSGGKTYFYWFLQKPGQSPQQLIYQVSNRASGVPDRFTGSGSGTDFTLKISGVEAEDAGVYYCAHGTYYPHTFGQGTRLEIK"
  OBS_VALUE: 747000

Turning to the following binder.
Prompt: Fill blank: measured Ka of the binder mAb8 (antibody, IgG1, V domains shown, Produced as full length IgG1 (kappa) in ExpiCHO-S cells; also called humanized anti-ApoC3 antibody mAb8) VH: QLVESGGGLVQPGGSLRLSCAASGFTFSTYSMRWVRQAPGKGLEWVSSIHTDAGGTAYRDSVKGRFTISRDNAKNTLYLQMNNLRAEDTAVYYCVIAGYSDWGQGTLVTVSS VL: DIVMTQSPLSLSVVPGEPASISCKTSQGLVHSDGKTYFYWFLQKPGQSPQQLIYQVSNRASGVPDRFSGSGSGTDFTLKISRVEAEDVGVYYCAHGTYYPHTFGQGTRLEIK is ____.
Completion: 4.15e+06
